Target: Fatty-acid amide hydrolase 1 (Rattus norvegicus) (UniProt P97612)
Sequence (P97612 whole entry): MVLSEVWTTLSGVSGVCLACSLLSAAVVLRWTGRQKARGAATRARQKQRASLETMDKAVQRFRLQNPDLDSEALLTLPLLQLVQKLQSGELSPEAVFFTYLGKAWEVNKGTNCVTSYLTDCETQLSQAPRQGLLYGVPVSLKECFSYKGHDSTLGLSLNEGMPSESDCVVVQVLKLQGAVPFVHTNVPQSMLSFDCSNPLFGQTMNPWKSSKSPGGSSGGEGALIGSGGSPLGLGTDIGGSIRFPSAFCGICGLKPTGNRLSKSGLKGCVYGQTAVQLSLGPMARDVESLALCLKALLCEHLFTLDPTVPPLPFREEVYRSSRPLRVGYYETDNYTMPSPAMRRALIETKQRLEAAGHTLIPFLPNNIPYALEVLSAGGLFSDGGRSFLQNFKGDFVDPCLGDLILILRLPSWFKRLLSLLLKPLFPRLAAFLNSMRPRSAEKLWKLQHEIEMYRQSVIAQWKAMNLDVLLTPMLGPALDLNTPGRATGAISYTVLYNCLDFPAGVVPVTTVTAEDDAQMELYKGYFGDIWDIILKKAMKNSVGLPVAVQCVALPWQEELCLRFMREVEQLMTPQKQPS
Experiment: Inhibition of FAAH in rat cerebellum membranes assessed as [3H]anandamide hydrolysis
Format: cell membranes
Settings: Membrane
pI50 (-log10 of IC50 in M) for assorted compounds

compound | relation | pI50 (-log10 of IC50 in M)
O=C(OCC1CO1)c1cccc(-c2ccccc2)c1 (racemic) | = | 4.22
CCCCCC/C=C\CCCCCCCC(=O)OCC1CO1 (racemic) | = | 5.09
O=C(OCC1CO1)c1ccccc1 (racemic) | < | 4
O=C(OCC1CCCCO1)c1cccc(-c2ccccc2)c1 (racemic) | = | 4.75
CCCCCCCC/C=C\CCCCCCCC(=O)OCC1CCCCO1 (racemic) | = | 4.53
O=C(OCC1CCCCO1)c1ccccc1 (racemic) | = | 4.28
CCCCC/C=C\C/C=C\C/C=C\C/C=C\CCCC(=O)OCC1CCOC1 (stereo not drawn) | = | 4.98
CCCCC/C=C\C/C=C\C/C=C\C/C=C\CCCC(=O)OC[C@H]1COC(C)(C)O1 | = | 4.55
CCCCC/C=C\C/C=C\C/C=C\C/C=C\CCCC(=O)NCC1CCCO1 (stereo not drawn) | = | 4.25
CCCCC/C=C\C/C=C\C/C=C\C/C=C\CCCC(=O)NCC1COC(C)(C)O1 (racemic) | = | 4.05
CCCCC/C=C\C/C=C\C/C=C\C/C=C\CCCC(=O)OCc1ccc2c(c1)OCO2 | = | 4
CCCCC/C=C\C/C=C\C/C=C\C/C=C\CCCC(=O)OCCC1OCC(C)(C)CO1 | = | 4.68
CCCCC/C=C\C/C=C\C/C=C\C/C=C\CCCC(=O)OCC1CCCCO1 (racemic) | = | 4.3
CCCCCCCC/C=C\CCCCCCCC(=O)OCC1CO1 (racemic) | = | 4.96
O=C(OCC1CCCCO1)c1ccccc1-c1ccccc1 (racemic) | = | 4.37
O=C(OCC1CCCCO1)c1ccc(-c2ccccc2)cc1 (racemic) | = | 4.49
CCCCC/C=C\C/C=C\C/C=C\C/C=C\CCCC(=O)NC[C@@H]1CCCO1 | = | 4.16
CCCCCC/C=C\CCCCCCCC(=O)OCC1CCCCO1 (racemic) | = | 5
